- System: OVCAR-8 ovarian
- protocol.summary: NCI-60 one-dose screen, 48 h
- reported.conditions: 10 µM unless noted
About 83,000 compounds went through this panel and 20% of them were active in at least one assay; those are over-represented in the sample as a whole. Active and inactive are the calls of the source. The calls were made as follows: active = growth percent below 10; inactive = the rest.
Outcome codes: yes (active), no (inactive)

compound	answer.label
COc1cc(C(=O)/C=C/c2c(-c3cccs3)nc3sccn23)cc(OC)c1OC	yes
Cc1ccccc1-n1nnc(C(=O)Nc2nc(-c3ccccc3)c(-c3ccccc3)s2)c1C	no
Cc1nc(-c2ccccc2)cc2c(O)c(C(=O)N/N=C/Cc3ccccc3)[nH]c(=O)c12	no
CCCCC/C=C\C/C=C/CCCCCCCCNC(=O)Nc1ccc([N+](=O)[O-])cc1	no
Cc1ccc(-c2nnc(COc3ccc(-c4nnc(N)s4)cc3)o2)cc1	no
CON=C1C[C@]2(C[C@@H]3C[C@@H](C/C=C(\C)C[C@@H](C)/C=C/C=C4\CO[C@@H]5[C@H](O)C(C)=C[C@@H](C(=O)O3)[C@]45O)O2)O[C@H](/C(C)=C/C(C)C)[C@H]1C	no
COc1cccc(-c2ccc3c(c2)C2CCN(Cc4ccccc4)C3C2)c1 (stereo not drawn)	no
CCOc1ccc(/C=N\N2CCCCCC2)cc1OCC	no
O=C(NCc1cccnc1)c1ccc([N+](=O)[O-])o1	yes
COc1cc2nc(N3CCC[C@H](NC4=CC(=O)c5ccccc5C4=O)C3)nc(N)c2cc1OC	yes
COc1ccc(S(=O)(=O)ON=C2C=C(C)C(=O)C(C)=C2)cc1	no
COc1cccc(OC)c1OC(=O)c1ccccc1	no
COC(=O)c1c2c(c(C)[n+]([O-])c1C)C(=O)C=C(NCc1ccc(F)c(Cl)c1)C2=O	yes
COc1ccc(/C=N/NC(=O)c2cnn(CC(O)Cc3ccccc3)c2N)cc1OC1CCCC1 (stereo not drawn)	no
O=C1CC2c3cc(-c4cc5ccccc5o4)ccc3CCN2C(=O)N1c1ccccc1 (stereo not drawn)	no
CC1(C)N=C(N)N=C(N)N1c1cccc(OCCOc2cccc([N+](=O)[O-])c2)c1	no
O=C(Nc1ccc(Cl)c(Cl)c1)NC(CO)(CO)CO	no
Brc1ccc(SCN(CSc2ccc(Br)cc2)Cc2ccccc2)cc1	no
Cn1cc(C(=O)NCCC(=N)N)cc1NC(=O)CN=C(N)N	no
C=CC(=O)N1CC2(CCC(n3nc(-c4ccc(Oc5ccccc5)cc4)c4c(N)ncnc43)CC2)C1	yes
Cc1ccc(S(=O)(=O)N2CCc3ccc(O)c4c3C2Cc2ccc3c(c2-4)OCO3)cc1 (stereo not drawn)	no
COc1ccc(NC(=O)COc2ccccc2)c(C(N)=O)c1	no
COc1ccc(OC2=C(C#N)C(=N)N3c4ccccc4Sc4ccccc4C3N2)cc1 (stereo not drawn)	no
Nc1nc(N)c(N=Nc2c(Br)cc(S(N)(=O)=O)cc2Br)c(N)n1	no
Oc1ccccc1/C=N/Nc1nc2ccccc2s1	no
CCCCC1COc2cccc3c(SCC(=O)N(C)c4cccc5ccccc45)cc[n+]1c23 (stereo not drawn)	no
CCN(c1ccc(C(=O)N2CCN(c3ccccc3)CC2)cc1)S(C)(=O)=O	no
Cc1c(C(=O)Nc2nc(-c3ccccc3)cs2)nnn1-c1ccccc1Br	no
COc1cc2cc(Oc3ccc(NC(=O)Nc4ccc(Cl)c(C(F)(F)F)c4)cc3)c(C)nc2cc1OCCN1CCCCC1	yes
COC(=O)c1cc(-c2ccc(C)cc2)n(C(=O)CSc2nc3sc(C(N)=O)c(C)c3c(=O)n2Cc2ccccc2)n1	no
Cc1ccc(S(=O)(=O)N2CCc3ccc(O)c4c3C2CCc2ccccc2-4)cc1 (stereo not drawn)	no
CCCCc1ccc(NC(=O)C(F)(F)F)cc1	no
Cc1ccc(C(=O)Nc2ccccc2N)cc1	no
